Recorded measurements of protein stability index, one per entry
B1: CPXM2 (parent)
chain: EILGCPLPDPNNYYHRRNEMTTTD

Variants of: B1
Test: protein stability index of a GFP-peptide fusion (GPS, HEK-293T) (PSI 1-6); higher = more stable;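 also: lentivirally expressed fusions sorted by FACS into six bins by GFP to DsRed ratio, PSI derived from sequencing read proportions per bin multiplied by bin number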
Conditions: c terminus: a fixed tail appended
Please give the numeric answer without any surrounding text.

# example entries with known answers
Quick note, protein stability index for QILGCPLPDPNNYYHRRNEMTTTD [E1Q] landed at 3.02

Quick note, protein stability index for EILGCPLPDPNHYYHRRNEMTTTD [N12H] landed at 3.36

Quick note, protein stability index for EIFGCPLPDPNNYYHRRNEMTTTD [L3F] landed at 3.38

Further cases:
Quick note, protein stability index for EILGVPLPDPNNYYHRRNEMTTTD [C5V] landed at 3.41

Quick note, protein stability index for EMLGCPLPDPNNYYHRRNEMTTTD [I2M] landed at 4.04

Quick note, protein stability index for EILGSPLPDPNNYYHRRNEMTTTD [C5S] landed at 4.17

Quick note, protein stability index for EILGTPLPDPNNYYHRRNEMTTTD [C5T] landed at 3.8

Quick note, protein stability index for EILGCPLPDPLNYYHRRNEMTTTD [N11L] landed at 2.98

Quick note, protein stability index for EILGCPLPDPNLYYHRRNEMTTTD [N12L] landed at 3.42
